The measured values listed here are drawn from patent US10194660B2.

Test system: Echinochloa crus-galli (ECHCG)
Assay: Pre-emergence herbicidal glasshouse test
Type: in vivo
Conditions: applied at 500 g/h, evaluated after 13 days, five point scale
EXPERIMENTAL ENDPOINT: percentage damage caused to the plant, PRE Application ECHCG

{"CHEM SMILES": "Cn1nnnc1NC(=O)c1cc2cnc(C(F)(F)F)nc2c(-c2ccccc2)c1Cl", "OBS VALUE": "5 (5=80-100%)"}
{"CHEM SMILES": "Cn1nnnc1NC(=O)c1cc2cncnc2c(-c2ccccc2)c1Cl", "OBS VALUE": "5 (5=80-100%)"}
{"CHEM SMILES": "CC(C)c1ncc2cc(C(=O)Nc3nnnn3C)c(Cl)c(-c3ccccc3)c2n1", "OBS VALUE": "5 (5=80-100%)"}
{"CHEM SMILES": "Cc1c(C(=O)Nc2nnnn2C)cc2cnc(C(F)(F)F)nc2c1-c1ccccc1", "OBS VALUE": "2 (2=20-39%)"}
{"CHEM SMILES": "Cn1nnnc1NC(=O)c1cc2cnc(C3CC3)nc2c(-c2ccccc2)c1Cl", "OBS VALUE": "5 (5=80-100%)"}
